Test system: HEK-293T
protocol-details: Multiplex assay against HEK293T
Format: toxicity, cell-based
assay-setup: human, 12 h, 1 µM, compound concentration 1 uM, replicate 2
The label rule met is reserved for Population Mitotic Cells (%) strictly under 80%; rule not met covers values equal to or above it.

CN(C)CC#Cc1ccc(OCCCc2sc(N3CCc4cccc(C(=O)Nc5nc6ccccc6s5)c4C3)nc2C(=O)O)c(F)c1 = rule not met
Cc1c(-c2ccc(O)cc2)n(Cc2ccc(OCCN3CCCCCC3)cc2)c2ccc(O)cc12 = rule not met
C[C@@H](NCCCc1cccc(C(F)(F)F)c1)c1cccc2ccccc12.Cl [CINACALCET HYDROCHLORIDE] = rule not met
CC(C)NCC(O)COc1ccc(CCOCC2CC2)cc1.Cl (centres undefined) [BETAXOLOL HYDROCHLORIDE] = rule not met
COc1ncc(-c2ccc3nccc(-c4ccnnc4)c3c2)cc1NS(=O)(=O)c1ccc(F)cc1F = rule met
C=CC(=O)Nc1cc2c(Nc3ccc(F)c(Cl)c3)ncnc2cc1OCCCN1CCOCC1.Cl.Cl [CANERTINIB DIHYDROCHLORIDE] = rule met
Cc1[nH]c(/C=C2\C(=O)Nc3ccc(S(=O)(=O)N(C)c4cccc(Cl)c4)cc32)c(C)c1C(=O)N1CCN(C)CC1 = rule met
Cc1nc(-c2ccc(-c3ccc(C(=O)N4CCc5cc6c(cc54)C4(CCN(C)CC4)CO6)cc3)c(C)c2)no1 = rule met
O=C1NCN(c2ccccc2)C12CCN(CCCOc1ccc(F)cc1)CC2 [SPIRAMIDE] = rule not met
COc1cccc([C@@H](C)NCCCc2ccccc2Cl)c1.Cl [TECALCET HYDROCHLORIDE] = rule not met
Cc1csc2c(N[C@@H](C)CN3CCN(S(=O)(=O)c4ccc(Cl)c(Cl)c4)CC3)ncnc12 = rule met
CN1CCN(CCOc2cc(OC3CCOCC3)c3c(Nc4c(Cl)ccc5c4OCO5)ncnc3c2)CC1 = rule met
C=CC(=O)Nc1ccc2ncnc(Nc3ccc(OCc4cccc(F)c4)c(Cl)c3)c2c1.Cc1ccc(S(=O)(=O)O)cc1 = rule not met
CC[C@H](C)C(=O)O[C@H]1C[C@@H](C)C=C2C=C[C@H](C)[C@H](CC[C@@H]3C[C@@H](O)CC(=O)O3)[C@H]21 = rule not met
